System: M14 melanoma
Test: NCI tumour cell line growth inhibition, 48 h
Observed Property: TGI

Hi, could you look up TGI for each item in my list?
1. COc1cccc2ccc3c(c12)C(=O)OC31CCc2c(C)cccc21 (stereo not given)
2. O=C(Nc1cccc([N+](=O)[O-])c1)c1cc2ccccc2cc1O
3. CCOC(=O)NC(=O)c1cn(C2OC(CO)C(O)C2O)c(=O)[nH]c1=O (stereo not given)
4. C[n+]1c(-c2ccc(/C=N/Nc3ccnc(N/N=C/c4ccc(-c5cn6ccccc6[n+]5C)cc4)n3)cc2)cn2ccccc21
5. Brc1ccc2c(c1)c(-c1nc(-c3c[nH]c4ncccc34)cs1)cn2CCCN1CCCCC1
6. O=C1C(=Cc2ccccc2[N+](=O)[O-])N=C(c2ccccc2)N1n1c(-c2ccccc2)nc2ccccc2c1=O

a:
1. > 46.4 µM
2. 6.68 µM
3. > 100 µM
4. > 100 µM
5. 3.39 µM
6. > 100 µM

Please report TGI for every entry that follows.
1. c1cc2ccc1CNCCN1CCNCc3ccc(cc3)Oc3ccc(cc3)CNCCN(CCNCc3ccc(cc3)O2)CCNCc2ccc(cc2)Oc2ccc(cc2)CNCC1
2. CC1(C)O[C@@H](CP(c2cccc3ccccc23)c2cccc3ccccc23)[C@H](CP(c2cccc3ccccc23)c2cccc3ccccc23)O1
3. Cc1nnc2sc(-c3ccc([N+](=O)[O-])o3)nn12
4. C=C1C[C@@H]2[C@H](CC[C@]3(C)C(=O)CC[C@@H]23)[C@@]2(C)C=CC(=O)C=C12

a:
1. 3.38 µM
2. > 100 µM
3. 21.9 µM
4. > 48.7 µM

Required: TGI, one value per compound below.
1. C/C(=C\CNc1nc(Cl)nc2nc[nH]c12)CO
2. Cc1ccc(S(=O)(=O)N2CCN(CCO)CCN(S(=O)(=O)c3ccc(C)cc3)CCN(CCO)CC2)cc1

a:
1: > 100 µM; 2: 31.5 µM

Batch: TGI for all items listed.
1. COc1cc2c(cc1O)CC[C@@H]1C2CC[C@@]2(C)C1CC[C@@H]2O (stereo not given in full)
2. Oc1ccc2ccccc2c1OCc1nnc(CCCCCCCCc2nnc(COc3c(O)ccc4ccccc34)o2)o1
3. O=C(O)CCCc1ccc2c(c1)CC1(C2)Cc2ccc(CCCC(=O)O)cc2C1
4. CC(=O)Nc1cc2cc(NS(=O)(=O)c3cc(C(F)(F)F)cc(C(F)(F)F)c3)ccc2oc1=O
5. O=C1OC2C=CC1C1(CCOC1=O)C2 (stereo not given)

a:
1: > 100 µM; 2: > 100 µM; 3: > 100 µM; 4: > 100 µM; 5: > 100 µM

Each compound below has a recorded value; state its TGI.
1. S=C(Nc1ccc2c(c1)Cc1ccccc1-2)Nc1ccc2c(c1)Cc1ccccc1-2
2. Cc1ccc(SCC(O)=C2C(=O)CCCC2=O)cc1

a:
> 100 µM
> 100 µM

q: # input compound: "C/C(=C\c1ccccc1)C(=O)NCc1ccc(C(=O)NCCc2c[nH]c3ccccc23)cc1" ; wanted: its TGI
a: > 100 µM
